- Test system: Lu1
- measurement_protocol: Cytotoxicity against human Lu1 cells after 72 hrs by sulforhodamine B assay
- Format: functional
- experimental_setup: Lu1, 72 h, read-out: ED50 (the source's name)
Give EC50 for every item shown.

Answer with the recorded EC50 for the molecule listed here: COc1cc2c(=O)oc3c(OC)c(O)cc4c(=O)oc(c1OC)c2c34
> 5 µg/mL

Answer with the recorded EC50 for the molecule listed here: O=C1OCc2cc3cc4c(cc3c(-c3ccc5c(c3)OCO5)c21)OCO4
> 5 µg/mL

Answer with the recorded EC50 for the molecule listed here: COc1cc(/C=C2/C(=O)OC[C@H]2Cc2ccc(O)c(OC)c2)ccc1O
> 5 µg/mL

Answer with the recorded EC50 for the molecule listed here: COc1c(OC(C)=O)cc2c(=O)oc3c(O)c(O[C@@H]4O[C@@H](C)[C@H](OC(C)=O)[C@@H](OC(C)=O)[C@H]4OC(C)=O)cc4c(=O)oc1c2c34
> 5 µg/mL

Answer with the recorded EC50 for the molecule listed here: CO[C@@]1(C)CO[C@@]2(C=C([C@@H]3CC[C@]45C[C@]34CC[C@@H]3[C@@]4(C)CC=C6C[C@@H](c7ccccc7)OC[C@]6(C)[C@@H]4C[C@@H](O)[C@]35C)C(=O)O2)C1
> 5 µg/mL

Answer with the recorded EC50 for the molecule listed here: CO[C@@]1(C)CO[C@@]2(C1)OC(=O)[C@H]([C@@H]1CC[C@]34C[C@]13CC[C@@H]1[C@@]3(C)CC=C5C[C@@H](c6ccc7c(c6)OCO7)OC[C@]5(C)[C@@H]3C[C@@H](O)[C@]14C)[C@H]2O
3.1 µg/mL

Answer with the recorded EC50 for the molecule listed here: Cc1c2ccncc2c(C)c2c1[nH]c1ccccc12
0.2 µg/mL

* * *

- System: Lu1
- measurement_protocol: Cytotoxicity against human Lu1 cells after 72 hrs by sulforhodamine B assay
- Assay type: functional
- experimental_setup: Lu1, 72 h, read-out: ED50 (the source's name)
Give EC50 for every item shown.

Answer with the recorded EC50 for the molecule listed here: O=C1OC[C@@H](Cc2ccc3c(c2)OCO3)/C1=C\c1ccc2c(c1)OCO2
> 5 µg/mL

Answer with the recorded EC50 for the molecule listed here: COc1cc2c(O[C@@H]3OC[C@H](O)[C@H](O)[C@H]3O)c3c(c(-c4ccc5c(c4)OCO5)c2cc1OC)C(=O)OC3
0.14 µg/mL

Answer with the recorded EC50 for the molecule listed here: CO[C@@]1(C)CO[C@@]2(C=C([C@@H]3CC[C@]45C[C@]34CC[C@@H]3[C@@]4(C)CC=C6C[C@@H](c7ccc8c(c7)OCO8)OC[C@]6(C)[C@@H]4C[C@@H](O)[C@]35C)C(=O)O2)C1
> 5 µg/mL

Answer with the recorded EC50 for the molecule listed here: COc1c(O)cc2c(=O)oc3c(O)c(O[C@@H]4O[C@@H](C)[C@H](O)[C@@H](O)[C@H]4O)cc4c(=O)oc1c2c34
> 5 µg/mL

* * *

- Tested on: MCF7
- measurement_protocol: Cytotoxicity against human MCF7 cells after 72 hrs by sulforhodamine B assay
- Format: functional
- experimental_setup: MCF7, 72 h, read-out: ED50 (the source's name)
Give EC50 for every item shown.

Answer with the recorded EC50 for the compound listed here: CO[C@@]1(C)CO[C@@]2(C=C([C@@H]3CC[C@]45C[C@]34CC[C@@H]3[C@@]4(C)CC=C6C[C@@H](c7ccc8c(c7)OCO8)OC[C@]6(C)[C@@H]4C[C@@H](O)[C@]35C)C(=O)O2)C1
> 5 µg/mL

Answer with the recorded EC50 for the compound listed here: COc1cc2c(O[C@@H]3OC[C@H](O)[C@H](O)[C@H]3O)c3c(c(-c4ccc5c(c4)OCO5)c2cc1OC)C(=O)OC3
0.22 µg/mL

Answer with the recorded EC50 for the compound listed here: COc1c(OC(C)=O)cc2c(=O)oc3c(O)c(O[C@@H]4O[C@@H](C)[C@H](OC(C)=O)[C@@H](OC(C)=O)[C@H]4OC(C)=O)cc4c(=O)oc1c2c34
> 5 µg/mL

* * *

- Tested on: MCF7
- measurement_protocol: Cytotoxicity against human MCF7 cells after 72 hrs by sulforhodamine B assay
- Assay type: functional
- experimental_setup: MCF7, 72 h, read-out: ED50 (the source's name)
measured_property: EC50 (µg/mL)
Express the result in µg/mL but write the number alone.

Answer with the recorded EC50 for the compound listed here: Cc1c2ccncc2c(C)c2c1[nH]c1ccccc12
0.4

Answer with the recorded EC50 for the compound listed here: CO[C@@]1(C)CO[C@@]2(C1)OC(=O)[C@H]([C@@H]1CC[C@]34C[C@]13CC[C@@H]1[C@@]3(C)CC=C5C[C@@H](c6ccc7c(c6)OCO7)OC[C@]5(C)[C@@H]3C[C@@H](O)[C@]14C)[C@H]2O
1.1

* * *

- experimental_target: Human immunodeficiency virus type 1 reverse transcriptase (Human immunodeficiency virus 1) (UniProt Q72547)
- measurement_protocol: Inhibition of HIV1 reverse transcriptase at 200 ug/ml
# binarize inhibition: threshold 40% inclusive, high side yes (1), low side no (0)

Quick check, inhibition >= 40%? O=C1OCc2cc3cc4c(cc3c(-c3ccc5c(c3)OCO5)c21)OCO4
yes (1)

Quick check, inhibition >= 40%? CO[C@@]1(C)CO[C@@]2(C1)OC(=O)[C@H]([C@@H]1CC[C@]34C[C@]13CC[C@@H]1[C@@]3(C)CC=C5C[C@@H](c6ccc7c(c6)OCO7)OC[C@]5(C)[C@@H]3C[C@@H](O)[C@]14C)[C@H]2O
no (0)

Quick check, inhibition >= 40%? CO[C@@]1(C)CO[C@@]2(C=C([C@@H]3CC[C@]45C[C@]34CC[C@@H]3[C@@]4(C)CC=C6C[C@@H](c7ccc8c(c7)OCO8)OC[C@]6(C)[C@@H]4C[C@@H](O)[C@]35C)C(=O)O2)C1
yes (1)

Quick check, inhibition >= 40%? CO[C@@]1(C)CO[C@@]2(C=C([C@@H]3CC[C@]45C[C@]34CC[C@@H]3[C@@]4(C)CC=C6C[C@@H](c7ccccc7)OC[C@]6(C)[C@@H]4C[C@@H](O)[C@]35C)C(=O)O2)C1
yes (1)

Quick check, inhibition >= 40%? COc1c(O)cc2c(=O)oc3c(O)c(O[C@@H]4O[C@@H](C)[C@H](O)[C@@H](O)[C@H]4O)cc4c(=O)oc1c2c34
no (0)

Quick check, inhibition >= 40%? COc1c(OC(C)=O)cc2c(=O)oc3c(O)c(O[C@@H]4O[C@@H](C)[C@H](OC(C)=O)[C@@H](OC(C)=O)[C@H]4OC(C)=O)cc4c(=O)oc1c2c34
yes (1)

Quick check, inhibition >= 40%? COc1cc2c(O[C@@H]3OC[C@H](O)[C@H](O)[C@H]3O)c3c(c(-c4ccc5c(c4)OCO5)c2cc1OC)C(=O)OC3
no (0)

Quick check, inhibition >= 40%? COc1cc(/C=C2/C(=O)OC[C@H]2Cc2ccc(O)c(OC)c2)ccc1O
yes (1)

* * *

- Test system: Col2
- measurement_protocol: Cytotoxicity against human Col2 cells after 72 hrs by sulforhodamine B assay
- Format: functional
- experimental_setup: Col2, 72 h, read-out: ED50 (the source's name)
Give EC50 for every item shown.

Answer with the recorded EC50 for the molecule listed here: COc1cc2c(=O)oc3c(OC)c(O)cc4c(=O)oc(c1OC)c2c34
> 5 µg/mL

Answer with the recorded EC50 for the molecule listed here: COc1cc2c(O[C@@H]3OC[C@H](O)[C@H](O)[C@H]3O)c3c(c(-c4ccc5c(c4)OCO5)c2cc1OC)C(=O)OC3
0.25 µg/mL

Answer with the recorded EC50 for the molecule listed here: COc1cc(/C=C2/C(=O)OC[C@H]2Cc2ccc(O)c(OC)c2)ccc1O
> 5 µg/mL

Answer with the recorded EC50 for the molecule listed here: COc1c(OC(C)=O)cc2c(=O)oc3c(O)c(O[C@@H]4O[C@@H](C)[C@H](OC(C)=O)[C@@H](OC(C)=O)[C@H]4OC(C)=O)cc4c(=O)oc1c2c34
> 5 µg/mL

Answer with the recorded EC50 for the molecule listed here: CO[C@@]1(C)CO[C@@]2(C1)OC(=O)[C@H]([C@@H]1CC[C@]34C[C@]13CC[C@@H]1[C@@]3(C)CC=C5C[C@@H](c6ccc7c(c6)OCO7)OC[C@]5(C)[C@@H]3C[C@@H](O)[C@]14C)[C@H]2O
4.8 µg/mL

Answer with the recorded EC50 for the molecule listed here: O=C1OC[C@@H](Cc2ccc3c(c2)OCO3)/C1=C\c1ccc2c(c1)OCO2
> 5 µg/mL

Answer with the recorded EC50 for the molecule listed here: CO[C@@]1(C)CO[C@@]2(C=C([C@@H]3CC[C@]45C[C@]34CC[C@@H]3[C@@]4(C)CC=C6C[C@@H](c7ccc8c(c7)OCO8)OC[C@]6(C)[C@@H]4C[C@@H](O)[C@]35C)C(=O)O2)C1
> 5 µg/mL

Answer with the recorded EC50 for the molecule listed here: CO[C@@]1(C)CO[C@@]2(C=C([C@@H]3CC[C@]45C[C@]34CC[C@@H]3[C@@]4(C)CC=C6C[C@@H](c7ccccc7)OC[C@]6(C)[C@@H]4C[C@@H](O)[C@]35C)C(=O)O2)C1
> 5 µg/mL

Answer with the recorded EC50 for the molecule listed here: O=C1OCc2cc3cc4c(cc3c(-c3ccc5c(c3)OCO5)c21)OCO4
> 5 µg/mL

Answer with the recorded EC50 for the molecule listed here: Cc1c2ccncc2c(C)c2c1[nH]c1ccccc12
0.5 µg/mL

Answer with the recorded EC50 for the molecule listed here: COc1c(O)cc2c(=O)oc3c(O)c(O[C@@H]4O[C@@H](C)[C@H](O)[C@@H](O)[C@H]4O)cc4c(=O)oc1c2c34
> 5 µg/mL
